Sourced from patent US20250042911A1

- Tested on: human M2 macrophages
- MEASUREMENT DESCRIPTION: Inhibition of human M2 macrophage activity, hCCL22 in culture supernatant by ELISA
- Type: cell-based
- ASSAY CONDITIONS: hCCL22 secretion, THP-1 derived M2-like macrophages, compound present during 72 hours of differentiation
- Method: To obtain human M2 macrophages, human monocytes (THP-1 monocyte, CD4 expression) were stabilized in a 96-well plate for 24 hours and then incubated in culture media containing 100 ng/mL phorbal 12-myristate-13-acetate (PMA; Sigma, P8139) for 24 hours to differentiate into M0 macrophages (macrophage-like phenotype). It was confirmed that differentiated M0 macrophages had reduced CD4 expression and expressed CD11b. […]
Counter-ions that a name gives are not always drawn.
Class definitions on EC50: low band (below 5 µM), middle band (5 µM to below 8 µM), high band (8 µM or more)

As a guide, the following entries are already answered.
COMPOUND	MEASUREMENT TARGET	ANSWER LABEL
CCNc1ccc2c(c1)OC(C)(C)C1=CCn3c(=O)n(-c4ccc(C(C)=O)cc4)c(=O)n3C12 (stereo not shown)	human M2 macrophages	low band
CN1CCN(c2ccc3c(c2)OC(C)(C)C2=CCn4c(=O)n(-c5ccc(C(F)(F)F)cc5)c(=O)n4C23)CC1 (stereo not shown)	human M2 macrophages	high band

Q: Which bin should I file CN(C)C(=O)Oc1ccc2c(c1)OC(C)(C)C1=CCn3c(=O)n(-c4ccc(F)cc4)c(=O)n3C12 (stereo not shown) under?
Result: high band

Q: Which bin should I file CC(=O)c1ccc(-n2c(=O)n3n(c2=O)C2C(=CC3)C(C)(C)Oc3cc(NC(C)(C)C)ccc32)cc1 (stereo not shown) under?
Result: low band

Q: Which bin should I file CC(=O)c1ccc(-n2c(=O)n3n(c2=O)C2C(=CC3)C(C)(C)Oc3cc(OC(=O)N4C(C)CN(C(=O)[C@@H]5CCCN5)CC4C)ccc32)cc1 (stereo partly shown) [Example 101, hydrochloride] under?
Result: high band

Q: Which bin should I file CN(C)C(=O)Oc1ccc2c(c1)OC(C)(C)C1=CCn3c(=O)n(-c4ccc(C(C)(C)C)cc4)c(=O)n3C12 (stereo not shown) under?
Result: high band

Q: Which bin should I file CC(=O)c1ccc(-n2c(=O)n3n(c2=O)C2C(=CC3)C(C)(C)Oc3cc(OC(=O)N4CCNCC4(C)C)ccc32)cc1 (stereo not shown) [Example 118, hydrochloride] under?
Result: middle band

Q: Which bin should I file CC(=O)c1ccc(-n2c(=O)n3n(c2=O)C2C(=CC3)C(C)(C)Oc3cc(OC(=O)N4CCN(C(=O)[C@@H]5CCCN5)CC4)ccc32)cc1 (stereo partly shown) [Example 82, hydrochloride] under?
Result: high band

Q: Which bin should I file CCN(CC)c1ccc2c(c1)OC(C)(C)C1=CCn3c(=O)n(-c4ccc(C(C)=O)cc4)c(=O)n3C12 (stereo not shown) under?
Result: middle band
